# SUBJECT_OF_TEST: T1, human IL-36R extracellular domain expressed with a C-terminal mouse IgG2a Fc tag (hIL-36R-mFc) (human; mouse, UniProt Q9HB29 20-337)
# T1 construct: not shown: mouse IgG2a Fc, E98-K330
# T1 sequence (looked up): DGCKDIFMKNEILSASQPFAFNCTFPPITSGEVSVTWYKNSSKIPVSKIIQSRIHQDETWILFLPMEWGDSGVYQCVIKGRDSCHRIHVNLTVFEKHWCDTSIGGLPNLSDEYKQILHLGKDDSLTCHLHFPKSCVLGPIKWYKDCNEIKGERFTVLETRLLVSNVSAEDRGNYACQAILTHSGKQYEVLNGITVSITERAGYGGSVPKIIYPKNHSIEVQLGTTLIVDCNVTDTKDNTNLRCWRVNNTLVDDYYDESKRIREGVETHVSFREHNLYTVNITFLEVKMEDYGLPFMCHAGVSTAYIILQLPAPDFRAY
# MEASUREMENT_DESCRIPTION: SPR Biacore 4000, mAb captured on anti-hFc, 25C

BINDER | koff / s⁻¹
H4H14731P (antibody, human IgG4 S228P, kappa, V domains shown, Fully human anti-IL-36R antibody) VH: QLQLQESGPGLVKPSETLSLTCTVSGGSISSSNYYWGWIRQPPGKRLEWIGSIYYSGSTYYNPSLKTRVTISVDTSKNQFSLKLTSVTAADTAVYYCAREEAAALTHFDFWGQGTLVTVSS VL: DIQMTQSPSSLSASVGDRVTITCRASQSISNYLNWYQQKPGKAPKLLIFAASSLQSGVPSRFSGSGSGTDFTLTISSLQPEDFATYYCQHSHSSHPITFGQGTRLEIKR | 0.000323

Reference for the values: patent US20200017592A1
